Molecular target: T1, UNK ZnF1-3 (human, UniProt Q9C0B0 31-174)
T1 sequence: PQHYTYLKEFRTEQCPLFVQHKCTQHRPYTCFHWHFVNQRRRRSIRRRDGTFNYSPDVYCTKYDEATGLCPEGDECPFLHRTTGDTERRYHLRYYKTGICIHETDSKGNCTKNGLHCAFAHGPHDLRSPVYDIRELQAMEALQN
Assay: nsRBNS (natural sequence RNA bind-n-seq); RBNS binding buffer (assumed for nsRBNS): 25 mM Tris pH 7.5, 150 mM KCl, 3 mM MgCl2, 0.01% Triton X-100, 500 ug/ml BSA, 20 U/ml SUPERase-In, 4 C; UNK is unkempt and MSI1 is Musashi-1; names of the RNAs are library labels; protein concentration not given here; high values mean tight binding
Over roughly 24,000 sequences, “enrichment r” has its median near 0.99; the highest 2% begin near 3.7. This excerpt belongs to a sample that is enriched for the highest values.
Please use true whenever binding signal is not below 3 enrichment R, and false whenever it is.

Here's what some known entries look like.
chr22:28376736:28376737:-_ENSG00000100154_ENST00000397906|hu_hu|FALSE|FALSE (ssRNA) RNA: GGGAGUUCUACAGUCCGACGAUCAUUUUAGAAUUACCUAAAAGAUACUUACUUAUCUAAAUUCUCCAACUAAACUCAGUACUAAUACGACUUUCAGCAUUUCCUUUCUUUAUAAAAUAAAUUAAUGGUUACCCCUAACUAGAUCAACAGAGGAUUGAGCAUCA; false
chr2:46850943:46850944:+_ENSG00000119878_ENST00000238892|hu_hu|FALSE|FALSE (ssRNA) RNA: GGGAGUUCUACAGUCCGACGAUCGUAGGCACAGCCCUGGCAGUAAUGAGAACCUGGUUGGUGCACAGAACUUUUACAAAUUCUACAAGUGGAGAACUUAUUCUUUCCAUAUGGAUCAAAUCUUGCUUUUUUUGAAGUCAAAGCCAACAGAGGAUUGAGCAUCA; false
chr2:148701057:148701058:-_ENSG00000115947_ENST00000542387|hu_hu|FALSE|FALSE (ssRNA) RNA: GGGAGUUCUACAGUCCGACGAUCUGACCGCAGGUUUUUGCUGAUAUUGAAAUGCUUCUGUAGUACUUCUUGCACACUUCUAUCUUCUGAGAGAUACUGAACAUUUUCAUUCCACUUCUCAGCAAAAACCUUGUCUGGAAACUCCAACAGAGGAUUGAGCAUCA; false
chr14:89338683:89338684:+_ENSG00000165533_ENST00000346301|hu_hu|hu_hu_hu_mus_False|38_98 (ssRNA) RNA: GGGAGUUCUACAGUCCGACGAUCGUGGUUGUUGUGGACCAGAGCCAGCCUGAAGCAUUGGUGGGCCAAGUUUGUAUCUCCGAUUCCCACAGCUAUGUGUCCCAAGUUGUACCAGACAUCAGCUGCCUCUUCUUCAUUUUCAGCCAACAGAGGAUUGAGCAUCA; false
chr4:109959894:109959895:-_ENSMUSG00000028546_ENSMUST00000106598|mus_mus|FALSE|FALSE (ssRNA) RNA: GGGAGUUCUACAGUCCGACGAUCGCUUCGACUCUUCUCUUAAAAUUUGCAAAGGUUUCAGAAUAUACUUAAAAAUGACUACUAUUGUUUUAUAUAUAUAUAUAUUAAAGAUCCACAGACCACAGUGUGGAUGAUUGUAAAGUACAACAGAGGAUUGAGCAUCA; true
chr18:25531195:25531196:-_ENSG00000170558_ENST00000399380|hu_mus|motif|central (ssRNA) RNA: GGGAGUUCUACAGUCCGACGAUCCUUUUUUUUUUUUUGUGUGUAAUUUUUUUGGUACAAAUUAUGUAAAACACUUGUGCGGAGAACUUUUACCCCUCCCCAAAACGAAACAAACAAAAAGAAAAUAAAAAAAUUUAAAAAAAACAACAGAGGAUUGAGCAUCA; true
chr19:15271055:15271056:-_ENSG00000074181_ENST00000263388|hu_mus|motif|central (ssRNA) RNA: GGGAGUUCUACAGUCCGACGAUCAUAUAUAUUUUGUAAAAAAUAAUAAUAAUAAUAAGUUUGUUUAAAUGAAUUUGUCUCGGUACAAAAUGUAAAAAAGAAAAAAAUAAUAACUCACUCUUGUCAGAGUGUGAGACAAUGAGACAACAGAGGAUUGAGCAUCA; true
chr2:179803060:179803061:+_ENSMUSG00000039086_ENSMUST00000041126|mus_mus|FALSE|FALSE (ssRNA) RNA: GGGAGUUCUACAGUCCGACGAUCAUGUAAAAAAAAAAAAAAUCACCCAAUUCUCACUGUAUAAAACUUGUCCUUUUCAUUUGAAAGAACGUAAUAAAGUUAUUUGGAUUCAUUAAAAAUGCAGUGUGGAUUUCAGACUUCCCUCAACAGAGGAUUGAGCAUCA; true
chr1:60041781:60041782:+_ENSMUSG00000041040_ENSMUST00000036540|mus_hu|mus_mus_mus_hu_False|38_58 (ssRNA) RNA: GGGAGUUCUACAGUCCGACGAUCAAGUUUACAAUAGUAAAGUAAAUGCAGUAGUGGCAAAUUUUCUUUUAUUUUCCUUCCUAAAAGAAAAUCUUUAGAUCUCAGUUCUAGUCUUGGACAUAGUGAAAGCUAUAAAUUCUGACUCAACAGAGGAUUGAGCAUCA; false
83260623_83262902_554_CDS_ENSMUSG00000031715_ENSMUST00000043359|mouse|control|control (ssRNA) RNA: GGGAGUUCUACAGUCCGACGAUCUUCUUUUUGCUUUCCAGGUGAUCCAUGAUCAAAUACUUCCUCCAUCUCGGUGUCCGCGGGGCCCGAGCCCGCAGCACACGGAGCCGCGGGCGCCGCGCCGCCCUCGGGGCCGCCUUUGUUCAACAGAGGAUUGAGCAUCA; false

Query: Tell me whether binding signal is at least 3 enrichment R here: chr7:54825262:54825263:-_ENSG00000132432_ENST00000352861|hu_hu|hu_hu_hu_mus_False|48_58 (ssRNA) RNA: GGGAGUUCUACAGUCCGACGAUCCUGCCGGCUGGGCUCCACAAACUGCAUUACCUGAUCCAUGUUUGUUGGAUGGCACACCUAAAAUGCCAGGGACCGUAGCUCAGGAGAGAACCGAGCCCAACGGAACCGGAAGCUGGCAACCAACAGAGGAUUGAGCAUCA
Reply: false

Query: Tell me whether binding signal is at least 3 enrichment R here: 97033003_97034721_1993_CDS_ENSG00000121152_ENST00000240423|human|control|control (ssRNA) RNA: GGGAGUUCUACAGUCCGACGAUCCCUGUGGUUUGCCUCUGCAUCUGCCUCCUUUCCGGAGAGCGCUGUCAGCAGACUCCACAUGCUCUGCUUCAGUUUCUUCAUGUCCAUCUUUUUGGCAGUCUUGGCAUAGUGAAUUUCAAUCAACAGAGGAUUGAGCAUCA
Reply: false

Query: Tell me whether binding signal is at least 3 enrichment R here: chr11:107358869:107358870:+_ENSMUSG00000020720_ENSMUST00000021063|mus_hu|FALSE|FALSE (ssRNA) RNA: GGGAGUUCUACAGUCCGACGAUCCUCUGGAAGUUGAUAAUUCCUGCUAAUCUGUCUACUUUAGCAAAGAUGGUCUUGUUAACUACUAGAUUUGAGAGAAAGGCUUCGGACUCAUCAACAGAUAGAUCCAGAAGCUGUGCCAUCCAACAGAGGAUUGAGCAUCA
Reply: true

Attribution: paper PMC12136788
